experiment: AUC (0-24 hrs) in mouse at 20 mg/kg, sc; format: ADME, organism-based; design: time < 24 hr, dose 20 mg/kg, route subcutaneous; settings: plasma
RESULT TYPE: AUC(0-t) at 24 h (µg·h/mL)
Write the value in µg·h/mL as a bare number.

Documented AUC(0-t) at 24 h of O=C(O)c1cn(C2CC2)c2cc(N3CCNCC3)c(F)cc2c1=O : 5.95

Documented AUC(0-t) at 24 h of CC(=O)NCC1CN(c2ccc(N3CCOCC3)c(F)c2)C(=O)O1 (single isomer, unassigned) : 29.1

====

tested on: Enterobacter sp.; assay: Antibacterial activity against Enterobacter sp.; assay type: functional
Would you kindly list MIC50 for each of these compounds?

Documented MIC50 of CC1(C)S[C@@H]2[C@H](NC(=O)[C@H](N)c3ccccc3)C(=O)N2[C@H]1C(=O)O : > 32 µg/mL

Documented MIC50 of CO/N=C(\C(=O)N[C@@H]1C(=O)N2C(C(=O)[O-])=C(C[N+]3(C)CCCC3)CS[C@H]12)c1csc(N)n1 [CEFEPIME] : 0.06 µg/mL

Documented MIC50 of CO/N=C(\C(=O)N[C@@H]1C(=O)N2C(C(=O)O)=C(CSc3nc(=O)c(O)nn3C)CS[C@H]12)c1csc(N)n1 : 0.12 µg/mL

Documented MIC50 of C[C@@H](O)[C@H]1C(=O)N2C(C(=O)O)=C(SCCNC=N)C[C@H]12 [IMIPENEM ANHYDROUS] : 1 µg/mL

Documented MIC50 of C[C@H]1COc2c(N3CCN(C)CC3)c(F)cc3c(=O)c(C(=O)O)cn1c23.C[C@H]1COc2c(N3CCN(C)CC3)c(F)cc3c(=O)c(C(=O)O)cn1c23.O : 0.03 µg/mL

Documented MIC50 of CC(C)(O/N=C(\C(=O)N[C@@H]1C(=O)N2C(C(=O)[O-])=C(C[n+]3ccccc3)CS[C@H]12)c1csc(N)n1)C(=O)O : 0.5 µg/mL

====

test system: Klebsiella pneumoniae; test: Antibacterial activity against Klebsiella pneumoniae; format: functional
Would you kindly list MIC50 for each of these compounds?
Write the value in µg/mL as a bare number.

Documented MIC50 of CC(C)(O/N=C(\C(=O)N[C@@H]1C(=O)N2C(C(=O)[O-])=C(C[n+]3ccccc3)CS[C@H]12)c1csc(N)n1)C(=O)O [CEFTAZIDIME] : 32

Documented MIC50 of CO/N=C(\C(=O)N[C@@H]1C(=O)N2C(C(=O)[O-])=C(C[N+]3(C)CCCC3)CS[C@H]12)c1csc(N)n1 [CEFEPIME] : 0.5

Documented MIC50 of C[C@@H](O)[C@H]1C(=O)N2C(C(=O)O)=C(SCCNC=N)C[C@H]12 [IMIPENEM ANHYDROUS] : 0.5

Documented MIC50 of CO/N=C(\C(=O)N[C@@H]1C(=O)N2C(C(=O)O)=C(CSc3nc(=O)c(O)nn3C)CS[C@H]12)c1csc(N)n1 [CEFTRIAXONE] : 16

====

Would you kindly list MIC90 for each of these compounds?
system: Enterobacter sp.; test: Antibacterial activity against Enterobacter sp.; assay type: functional
Write the value in µg/mL as a bare number.

C[C@@H](O)[C@H]1C(=O)N2C(C(=O)O)=C(SCCNC=N)C[C@H]12 [IMIPENEM ANHYDROUS] tested on Enterobacter sp. gave MIC90: 2

CO/N=C(\C(=O)N[C@@H]1C(=O)N2C(C(=O)[O-])=C(C[N+]3(C)CCCC3)CS[C@H]12)c1csc(N)n1 [CEFEPIME] tested on Enterobacter sp. gave MIC90: 4

C[C@H]1COc2c(N3CCN(C)CC3)c(F)cc3c(=O)c(C(=O)O)cn1c23.C[C@H]1COc2c(N3CCN(C)CC3)c(F)cc3c(=O)c(C(=O)O)cn1c23.O tested on Enterobacter sp. gave MIC90: 0.5

Provenance of the data: ChEMBL document CHEMBL1147099
